Where do the numbers come from? From patent US20260053171A1.

- System: methane production in rumen fluid
- assay_name: Rumen in vitro (RIV) assay, methane production from rumen fluid incubations
- Assay type: cell-based, cattle
- measurement_conditions: Bos taurus, 10 μM; read-out: RIV % methane reduction +/− SD
measurement_label: inhibition at 10 µM (%)
Output spec: scalar in %, unitless text.

Fill in reported inhibition at 10 µM for this entry: O=C(O)CCC(=O)N1N=C(c2ccc(-c3cc(F)cc(F)c3)cc2)CC1c1ccc2nccnc2c1 (stereo not drawn)
85.4

Recall and state the measured inhibition at 10 µM for O=C(O)CCC(=O)N1N=C(c2ccc(Cl)cc2)CC1c1ccc2c(c1)OCCO2 (stereo not drawn) .
20

Quickly give me recorded inhibition at 10 µM for CC(C)(C)c1ccc(-c2ccc(C3=NN(C(=O)CCC(=O)O)C(c4ccc5nccnc5c4)C3)cc2)cc1 (stereo not drawn)
6

Check the records and state inhibition at 10 µM for O=C(O)c1cccc(N2N=C(c3ccc(Cl)cc3)CC2c2ccc3nccnc3c2)c1 (stereo not drawn)
90.9

Specify inhibition at 10 µM for O=C(O)CCC(=O)N1N=C(c2ccc(-c3ccc(Cl)cc3Cl)cc2)CC1c1ccc2nccnc2c1 (stereo not drawn) and stop.
65.8

Read the entry CC(C)Sc1ccc(-c2ccc(C3=NN(C(=O)CCC(=O)O)C(c4ccc5nccnc5c4)C3)cc2)cc1 (stereo not drawn) and write its reported inhibition at 10 µM.
49.1

Respond only with inhibition at 10 µM recorded for CC(C)Oc1ccc(-c2ccc(C3=NN(C(=O)CCC(=O)O)C(c4ccc5nccnc5c4)C3)cc2)cc1F (stereo not drawn)
89.2

Dear colleague, please send me the reported inhibition at 10 µM for CCCOc1ccc(-c2ccc(C3=NN(C(=O)CCC(=O)O)C(c4ccc5nccnc5c4)C3)cc2)cc1 (stereo not drawn) when you can.
88.8

For the molecule O=C(O)CCC(=O)N1N=C(c2ccc(-c3ccc4c(c3)OCO4)cc2)CC1c1ccc2nccnc2c1 (stereo not drawn) , give its reported inhibition at 10 µM.
24.8

Specify reported inhibition at 10 µM for the molecule shown: O=C(O)CCC(=O)N1N=C(c2ccc(-c3ccc(OC(F)(F)F)c(Cl)c3)cc2)CC1c1ccc2nccnc2c1 (stereo not drawn)
52.8

Let me know recorded inhibition at 10 µM for O=C(O)CCC(=O)N1N=C(c2ccc(-c3ccoc3)cc2)CC1c1ccc2nccnc2c1 (stereo not drawn) , thanks.
6.3

Please report the measured inhibition at 10 µM for O=C(CCC(=O)N1N=C(c2ccc(Cl)cc2)CC1c1ccc2nccnc2c1)NS(=O)(=O)N1CCCC1 (stereo not drawn)
53

Please indicate inhibition at 10 µM recorded for CCOc1ccc(-c2ccc(C3=NN(C(=O)CCC(=O)O)C(c4ccc5nccnc5c4)C3)cc2)cc1 (stereo not drawn)
81.5

Let me know recorded inhibition at 10 µM for O=C(O)CCC(=O)N1N=C(c2ccc(Cl)cc2)CC1c1ccc2nonc2c1 (stereo not drawn) , thanks.
43.6

Supply reported inhibition at 10 µM belonging to this molecule: O=C(O)CCC(=O)N1N=C(c2ccc(-c3ccccc3)cc2)CC1c1ccc2nonc2c1 (stereo not drawn)
43.3
